Quick reference: TGI of the listed items.
# System: UACC-257 melanoma
# PROTOCOL SUMMARY: NCI tumour cell line growth inhibition, 48 h

# MOLECULE, TGI
rows = [
    ("CC(C)=CCc1cc2c(cc1O)C1=C(C(=O)C3=C(C1=O)S(=O)(=O)CCN3)C(C=C(C)C)O2 (configuration not stated)", "1.5 µM"),
    ("CSc1ncnc2c1cnn2Cc1cn(COCCO)nn1", "> 100 µM"),
    ("CN1CCN(CC(=O)N(C)c2ccc(N=C(c3ccccc3)c3c(O)[nH]c4ccc(C#N)cc34)cc2)CC1", "6.2 µM"),
    ("O=C(NCCN1CCCCC1)c1ccc(Br)cc1", "> 100 µM"),
    ("O=C1Nc2ccc(Br)cc2C12CC(c1ccccc1)=NN2 (configuration not stated)", "> 100 µM"),
]

Quick one: TGI of CCOC1OC(CO)C(O)CC1n1ccc(=O)[nH]c1=O (configuration not stated) ? > 100 µM

Try this molecule too: FC(F)(F)c1ccc(C2ON=C(c3ccccc3)N2C23CC4CC(CC(C4)C2)C3)cc1 (configuration not stated) > 10 µM

Ok, now O=C(Cc1ccccc1)NN1C(=O)C(Cl)C1c1ccccc1Cl (configuration not stated) > 100 µM

Try `COc1cc2ccc3c4ccccc4cnc3c2cc1OC` next. > 100 µM

Now consider `O=C(Nc1ccc(Oc2ccc3nc(NC(=O)c4ccco4)[nH]c3c2)cc1)Nc1cc(C(F)(F)F)ccc1F` and answer again. 8.74 µM

Input `N#CCn1c(=O)c(Oc2ccc(F)cc2F)cc2cnc(NC3CCOCC3)nc21` > 25 µM

Then this molecule: `O=C1NC(=NCCc2ccc(F)cc2)S/C1=C\c1ccc2ncccc2c1` > 25 µM

Another molecule: `CC1(C)OC(=O)C(C)(C)C(=O)O1` > 100 µM

Follow-up entry: `C#Cc1cccc(Nc2ncnc3cc(NC(=O)CCl)ccc23)c1` 8.12 µM

Query `CC(C)(CN1C(=O)C(Cl)=C(Cl)C1=O)CN1C(=O)C(Cl)=C(Cl)C1=O` next 29 µM

Would you mind doing Cc1ccc(S(=O)c2cccs2)cc1 (configuration not stated) as well? > 100 µM

Another: `CCOC(=O)c1c(-c2ccccc2)[n+](=O)c2cc(Cl)c(Cl)cc2n1[O-]` 8.41 µM

How about `COc1ccc(-c2cc(=O)c3c(O)c(OC)c(OC)c(OC)c3o2)cc1OC` ? > 100 µM

How about Nc1nncc2c1c(Br)cn2C1OC(CO)C(O)C1O (configuration not stated) ? > 100 µM

# iterate: `CC1=NN(c2nc(N)nc(NS(=O)(=O)c3cc(C)c(Cl)cc3S)n2)C(C)(C)C1` > 10 µM

Repeat for the following molecule: `CCCNC(=O)Nc1c([N+](=O)[O-])cc(C(F)(F)F)cc1[N+](=O)[O-]` > 100 µM

Repeat with `COCC(C)(C)N=CN1Cc2cc3ccccc3nc2C1` > 100 µM

----------
# Test system: IGROV1 ovarian
# PROTOCOL SUMMARY: NCI tumour cell line growth inhibition, 48 h
Documented TGI across a set of compounds
Record the value in µM, omitting the unit from your answer.

For orientation, consider the following solved cases.
# COMPOUND, MEASURE UNIT, TGI
measured = [
    ("N#CCCn1[nH]c(=O)c(Cl)c(Cl)c1=O", "µM", 33.6),
    ("N#C/C(=C\\c1ccncc1)c1csc2ccccc12", "µM", 97.4),
    ("CC1=NN=C(C)C1N=Nc1ccc2nc(C)[nH]c2c1", "µM", 29.7),
]

Requested field: TGI. Item: `COc1cc(/C=C/C(=O)c2cccc(-n3cc(-c4cc(OC)c(OC)c(OC)c4)[nH]c3=O)c2)cc(OC)c1OC` 3.79

Now give it for COc1cc2c(c(OC)c1OC)-c1ccc(NN(C(=O)c3ccccc3)C(=O)c3ccccc3)c(=O)cc1[C@@H](NC(C)=O)CC2 (tested in a mixture with another compound) too. 63
